Target: T1, human ferroportin (SLC40A1) fused in frame with GFP, stably expressed in HEK293 cells (human, UniProt Q9NP59 1-571)
T1 sequence (looked up): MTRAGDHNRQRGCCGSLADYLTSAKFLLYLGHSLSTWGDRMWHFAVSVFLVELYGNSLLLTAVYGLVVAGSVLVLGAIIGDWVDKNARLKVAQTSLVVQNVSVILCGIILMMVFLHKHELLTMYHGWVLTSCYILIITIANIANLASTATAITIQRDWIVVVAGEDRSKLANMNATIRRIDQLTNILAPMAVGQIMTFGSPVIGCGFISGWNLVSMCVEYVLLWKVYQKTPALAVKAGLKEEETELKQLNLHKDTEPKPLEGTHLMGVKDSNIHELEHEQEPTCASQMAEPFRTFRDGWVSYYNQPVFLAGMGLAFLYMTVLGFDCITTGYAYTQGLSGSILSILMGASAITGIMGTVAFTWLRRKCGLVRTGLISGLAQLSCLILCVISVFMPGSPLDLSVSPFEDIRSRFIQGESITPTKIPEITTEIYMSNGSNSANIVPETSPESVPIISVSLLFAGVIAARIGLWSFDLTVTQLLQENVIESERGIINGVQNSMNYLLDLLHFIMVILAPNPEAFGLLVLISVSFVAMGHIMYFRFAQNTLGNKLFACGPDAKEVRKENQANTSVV
Assay: cell-based or functional assay
Non-standard residues stand in square brackets, D forms with d. Groups on a side chain read outwards from the residue. *: point of attachment. Dip = N[C@H](C(=O)O)C(c1ccccc1)c1ccccc1; Palmitoyl = CCCCCCCCCCCCCCCC(=O)*; β3hF = N[C@H](CC(=O)O)Cc1ccccc1; NMeK = CN[C@@H](CCCCN)C(=O)O; Isovaleryl = CC(C)CC(=O)*; Ahx = NCCCCCC(=O)O
Measurement label: FPN EC50 (nM)

>  <Binder>
Isovaleryl-LTH[Dip]PAI[NMeK][β3hF]K([Ahx-Palmitoyl])-NH2 (SMILES CCCCCCCCCCCCCCCC(=O)NCCCCCC(=O)NCCCC[C@H](NC(=O)C[C@H](Cc1ccccc1)NC(=O)[C@H](CCCCN)N(C)C(=O)[C@@H](NC(=O)[C@H](C)NC(=O)[C@@H]1CCCN1C(=O)[C@@H](NC(=O)[C@H](Cc1c[nH]cn1)NC(=O)[C@@H](NC(=O)[C@H](CC(C)C)NC(=O)CC(C)C)[C@@H](C)O)C(c1ccccc1)c1ccccc1)[C@@H](C)CC)C(N)=O) [Isovaleric Acid-L-T-H-[Dpa]-P-A-I-[(N-Me)Lys]-[bhPhe]-[Lys(Ahx_Palm)]-NH2]

>  <Measurement label>
FPN EC50

>  <Value measured>
103

$$$$

A: Isovaleryl-ETH[Dip]P[N(Et)Gly]IK([Ahx-Palmitoyl])[β3hF]-NH2 [Isovaleric Acid-E-T-H-[Dpa]-P-[N-(Et)Gly]-I-[Lys(Ahx_Palm)]-[bhPhe]-NH2]
B: Isovaleryl-ATH[Dip]PAI[dK][β3hF]K([Ahx-Palmitoyl])-NH2 [Isovaleric Acid-A-T-H-[Dpa]-P-A-I-[(D)Lys]-[bhPhe]-[Lys(Ahx_Palm)]-NH2]
input: Of A and B , which shows the smaller FPN EC50 value? Write down the label attached to your selection.
output: B
